src = PubChem BioAssay (NCI)

Test system: M14 melanoma
procedure.text: NCI-60 one-dose screen, 48 h
test.parameters: 10 µM unless noted
The panel holds about 83,000 compounds, 20% with a hit somewhere; the sample as a whole holds those more often. The source made the active and inactive calls. The calls were made as follows: active = growth percent below 10; inactive = the rest.
Hi there, use one of these labels in your reply, thanks! active, inactive

Consider the worked cases shown below.
> print(dat)
                                   compound  classification
1  CCCCC[C@@H]1Cc2cc(O)c(C(=O)O)c3c2[C@H](C[C@]2(OC[C@@H](CC(=O)[C@@](C)(CC)C(=O)OC)[C@@H]2C)O3)O1        inactive
2           Clc1ccc(Sc2cnc(-c3ccccc3)o2)cc1        inactive
3  COc1cc(-c2cc(-c3ccc(N(C)C)cc3)nc(N3CCC(O)CC3)c2C#N)cc(OC)c1OC          active
4  CC(C)(C)[Si](C)(C)O[C@H]1C(=O)C=CN2CC=C[C@@H]12        inactive
5  CCN(c1ccc(Cl)cc1)c1nc(-c2ccc([N+](=O)[O-])cc2)cs1        inactive
6  COc1cc(OC)cc(C2=C3CC[C@@H]4[C@H](CC[C@]5(C)C(=O)CC[C@@H]45)C3=CC3C(O)c4cccnc4N4C(=O)COC234)c1 (stereo not given in full)        inactive

Continue with the next compound.
Test call for this compound, please: CC(=O)n1nc(C(=O)OC(C)C)c2cc(C)c(C)cc21
inactive
